TEST SYSTEM: T1, FBF-2 RBD+CT Loop6A (Caenorhabditis elegans, UniProt Q09312 164-632, E592A;D594A;E597A;E599A;E604A;E605A)
T1 sequence: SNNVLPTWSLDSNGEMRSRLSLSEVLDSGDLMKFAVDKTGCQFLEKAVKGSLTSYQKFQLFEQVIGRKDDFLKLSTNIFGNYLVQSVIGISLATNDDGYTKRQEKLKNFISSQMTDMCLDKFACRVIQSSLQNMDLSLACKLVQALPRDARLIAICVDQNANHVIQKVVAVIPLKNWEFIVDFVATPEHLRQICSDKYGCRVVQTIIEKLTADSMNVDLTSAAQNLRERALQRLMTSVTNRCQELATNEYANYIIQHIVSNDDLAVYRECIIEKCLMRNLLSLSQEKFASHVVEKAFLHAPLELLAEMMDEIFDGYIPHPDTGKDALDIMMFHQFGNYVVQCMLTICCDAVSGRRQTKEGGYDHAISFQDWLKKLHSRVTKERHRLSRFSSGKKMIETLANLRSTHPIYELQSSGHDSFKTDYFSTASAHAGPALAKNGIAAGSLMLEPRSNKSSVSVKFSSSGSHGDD
MEASUREMENT DESCRIPTION: SPR; kon 10.9e4 M-1 s-1, koff 0.94e-3 s-1; EMSA: FBF-2 in 20 mM HEPES pH 7.4, 150 mM NaCl, 0.5 mM TCEP mixed 1:1 with 5 nM final RNA in 10 mM HEPES pH 7.4, 0.01% Tween 20, 0.1 mg/ml BSA, 0.1 mg/ml yeast
PROTOCOL CONDITIONS: protein: recombinant; tags: none (His6-SUMO removed with Ulp1); label: 3'-biotin
MEASURE: Kd (nM)
Express your answer in nM, writing the number without its unit.

Look up and state reported Kd for AUCAUGUGCCAUACA (ssRNA) [gld-1 FBEa RNA (SPR)]
9.5
